PROPERTY NAME: logP
Hey, just send me the number, nothing else.

Consider the reported logP for these compounds:
# SMILES NOTATION, PROPERTY NAME, NUMERIC VALUE
records = [
    ("CCOc1cncc(OC)n1", "logP", 1.98),
    ("COc1nccnc1C", "logP", 1.24),
    ("CCc1nc(C#N)c(C#N)nc1Cl", "logP", 1.79),
    ("Cc1cnc(C(N)=O)cn1", "logP", -0.25),
    ("CCc1nccnc1C", "logP", 1.07),
    ("COc1cnc(OC)cn1", "logP", 1.14),
]

Hello, please tell me recorded logP for this one: `Cc1cnc(Cl)cn1` 1.08

Hello, please tell me recorded logP for this one: `COC(=O)c1ccc(Br)o1` 1.84

Hello, please tell me recorded logP for this one: `CCOC(=O)c1cncc(N(C)C)n1` 1.24

Hello, please tell me recorded logP for this one: `COC(=O)c1cncc(N(C)C)n1` 0.9

Hello, please tell me recorded logP for this one: `CCOc1cnc(Cl)cn1` 1.99

Hello, please tell me recorded logP for this one: `Cc1cncc(N(C)C)n1` 1.57

* * *

PROPERTY NAME: logP
Hey, just send me the number, nothing else.

Consider the reported logP for these molecules:
# SMILES NOTATION, logP
rows = [
    ("COc1cnc(N)cn1", 0.63),
    ("Cc1nc(C#N)c(C#N)nc1Cl", 1.29),
]

# input for lookup
Hello, please tell me recorded logP for this one: `COC(=O)c1nccnc1C(=O)OC` -0.02

* * *

// returns Not met unless logP is strictly below 0.9, in which case Met

Record excerpt, results attached:
# SMILES NOTATION, CAT
measured = [
    ("Cc1cncc(C)n1", "Met"),
    ("Cc1cncc(C#N)n1", "Met"),
    ("COc1cnc(N(C)C)cn1", "Not met"),
    ("COc1cncc(C#N)n1", "Not met"),
    ("CC(=O)Nc1cnc(Cl)cn1", "Met"),
]

Find out if reported logP for `CN(C)c1cncc(C#N)n1` is less than 0.9 Not met

Find out if reported logP for `CCOc1cncc(C(N)=O)n1` is less than 0.9 Met

Find out if reported logP for `COc1cncc(N)n1` is less than 0.9 Met

Find out if reported logP for `CCc1nccnc1CC` is less than 0.9 Not met

* * *

PROPERTY NAME: logP
Hey, just send me the number, nothing else.

# SMILES NOTATION, logP
records = [
    ("COc1cncc(OC)n1", 1.58),
    ("CCOc1cncc(OCC)n1", 2.55),
    ("CCOC(=O)c1cnc(C)cn1", 0.61),
]

Hello, please tell me recorded logP for this one: `CCCCc1nccnc1C` 2.1

Hello, please tell me recorded logP for this one: `CN(C)c1cnc(Cl)cn1` 1.7

Hello, please tell me recorded logP for this one: `Cc1cnc(C)c(C)n1` 0.95

Hello, please tell me recorded logP for this one: `COc1cnc(Cl)cn1` 1.52

* * *

Please map values of logP to classes as shown: low bracket (below 0.4), middle bracket (0.4 to below 1), high bracket (1 or more)

# SMILES NOTATION, CAT
rows = [
    ("CN(C)c1cncc(C(N)=O)n1", "low bracket"),
]

Which bin, given its logP, does `CSc1nccnc1C` occupy? high bracket

Which bin, given its logP, does `Cc1cncc(N)n1` occupy? low bracket

Which bin, given its logP, does `CCOC(=O)c1cncc(OC)n1` occupy? high bracket
